- Test system: Fibroblast
- ASSAY TEXT: Multiplex assay against human fibroblast
- Format: toxicity, cell-based
- PARTICULARS: 48 h, 10 µM, compound concentration 10 uM, replicate 2
PARAMETER: Population Healthy Nuclei (%)
Express your answer in %, writing the number without its unit.

// Population Healthy Nuclei (%) lookup, key: CCc1nn(CCCN2CCN(c3cccc(Cl)c3)CC2)c(=O)n1CCOc1ccccc1.Cl [NEFAZODONE HYDROCHLORIDE] 54

Consider the compound shown here: COC(=O)C1=C(C)NC(C)=C(C(=O)OCCCN2CCC(c3ccccc3)(c3ccccc3)CC2)[C@H]1c1cccc([N+](=O)[O-])c1 [NIGULDIPINE] What is its recorded Population Healthy Nuclei (%)? 17

Given the entry COc1ccccc1CN[C@H]1C2CCN(CC2)[C@H]1C(c1ccccc1)c1ccccc1 [CP-96345] , report its measured Population Healthy Nuclei (%). 66

Quick one: Population Healthy Nuclei (%) of `COc1cc(Nc2nccc(-c3cnn4nc(OC)ccc34)n2)cc(C(F)(F)F)c1` ? 59

Could you tell me which Population Healthy Nuclei (%) is on file for `CNC(=O)Nc1ccc(-c2nc(N3CC4CCC(C3)O4)c3cnn(C4CCC5(CC4)OCCO5)c3n2)cc1` ? 49

Please give the measured Population Healthy Nuclei (%) for this compound: `CC(C)NC(=O)N1CC[C@H](NC2=Nc3cc(F)ccc3N(CC(F)F)c3ccc(Cl)cc32)C1` 74

Population Healthy Nuclei (%) lookup needed for CN1CCN(Cc2ccc(Nc3ncc(Cl)c(Nc4ccccc4S(=O)(=O)N(C)C)n3)cc2)CC1 [DUBERMATINIB] , thanks. 44

For the compound `Cc1ccc(C)c(Oc2ccncc2C(=O)N2CCN(C3CC3)c3ccccc32)c1` , what Population Healthy Nuclei (%) is on record? 54

Which Population Healthy Nuclei (%) value is on record for `CC(C)OC(=O)N1CCC(Oc2ncnc3c2cnn3-c2ccc(S(C)(=O)=O)cc2F)CC1` ? 73

====

- Tested on: Fibroblast
- ASSAY TEXT: Multiplex assay against human fibroblast
- Assay type: toxicity, cell-based
- PARTICULARS: 24 h, 10 µM, compound concentration 10 uM, replicate 2
Provide the reported Population Membrane Permeable-Phenotype (%) of each item.
// note: answer is a bare numeric in %

What measured Population Membrane Permeable-Phenotype (%) is associated with `C=CC(=O)Nc1cccc(Sc2nc(Nc3ccc(N4CCN(C)CC4)cc3)ncc2Cl)c1` on Fibroblast? 20

Quick check: Population Membrane Permeable-Phenotype (%) on Fibroblast, item Cc1cccc(CN2CCN(C(c3ccccc3)c3ccc(Cl)cc3)CC2)c1.Cl.Cl (centres undefined) ? 5

Item CC(C)(C)NC[C@H](O)COc1nsnc1N1CCOCC1 [TIMOLOL] with Fibroblast - Population Membrane Permeable-Phenotype (%)? 3

API: value(readout=Population Membrane Permeable-Phenotype (%), system=Fibroblast) for record `CC(C)NC(=O)N1CC[C@H](NC2=Nc3cc(F)ccc3N(CC(F)F)c3ccc(Cl)cc32)C1` 6

Request - read-out Population Membrane Permeable-Phenotype (%) | tested on Fibroblast | compound C[C@]12CC[C@@H]3c4ccc(O)cc4CC[C@H]3[C@@H]1CC[C@@H]2O [ESTRADIOL] 5

Lookup: Population Membrane Permeable-Phenotype (%) / Fibroblast / `CCc1ccc(OCc2ccccc2C(=O)Nc2ccc3nc(C)cc(N)c3c2)cc1.Cl` 47

# value lookup — system Fibroblast, readout Population Membrane Permeable-Phenotype (%), item CCCSc1nc(N[C@@H]2C[C@H]2c2ccc(F)c(F)c2)c2nnn([C@@H]3C[C@H](OCCO)[C@@H](O)[C@H]3O)c2n1 [TICAGRELOR] 65

Checklist item: Population Membrane Permeable-Phenotype (%) tested on Fibroblast, entry `Cc1nc(N2CC[C@H](O)C2)ncc1-c1cc(C(F)(F)F)cc2[nH]ncc12` , value? 38

Lookup: Population Membrane Permeable-Phenotype (%) / Fibroblast / CC(C)CC(=O)Nc1[nH]nc2c1CN(C(=O)C1CCN(C)CC1)C2(C)C [PHA-793887] 0
